This section presents compounds with their documented solubility values.
- assay: Water solubility of freeze-dried compounds in water (observation and HPLC)
Residues, ends and D or L forms follow the SMILES beside them. *: point of attachment. Doxorubicin(3'-N) = COc1cccc2c1C(=O)c1c(O)c3c(c(O)c1C2=O)C[C@@](O)(C(=O)CO)C[C@@H]3O[C@H]1C[C@H](N*)[C@H](O)[C@H](C)O1; Mal(CH2CH2O)6CH2CH2CO = O=C1C=CC(=O)N1CCOCCOCCOCCOCCOCCOCCC(=O)*; Hexanoyl(6-maleimido) = O=C1C=CC(=O)N1CCCCCC(=O)*; Butanoyl(4-maleimido) = O=C1C=CC(=O)N1CCCC(=O)*; Propanoyl(3-maleimido) = O=C1C=CC(=O)N1CCC(=O)*; X1 = O=C1C=CC(=O)N1CCOCCOCCOCCC(=O)*; PEG2 = NCCOCCOCCC(=O)O

Answered cases to consult:
compound	measure	result
COc1cccc2c1C(=O)c1c(O)c3c(c(O)c1C2=O)C[C@@](O)(C(=O)CO)C[C@@H]3O[C@H]1C[C@H](NC(=O)[C@H](CC(C)C)NC(=O)[C@H](CC(N)=O)NC(=O)[C@H](C)NC(=O)[C@H](C)NC(=O)[C@H](CC(=O)O)NC(=O)CCOCCOCCOCCOCCOCCOCCN2C(=O)C=CC2=O)[C@H](O)[C@H](C)O1 [QHL-036] ({Mal(CH2CH2O)6CH2CH2CO}-DAANL-{Doxorubicin(3'-N)})	solubility	> 30 mg/mL
COc1cccc2c1C(=O)c1c(O)c3c(c(O)c1C2=O)C[C@@](O)(C(=O)CO)C[C@@H]3O[C@H]1C[C@H](NC(=O)[C@H](CC(C)C)NC(=O)[C@H](CC(N)=O)NC(=O)[C@H](C)NC(=O)[C@H](C)NC(=O)[C@H](CCC(=O)O)NC(=O)CCOCCOCCOCCN2C(=O)C=CC2=O)[C@H](O)[C@H](C)O1 [QHL-022] (X1-EAANL-{Doxorubicin(3'-N)})	solubility	> 20 mg/mL
COc1cccc2c1C(=O)c1c(O)c3c(c(O)c1C2=O)C[C@@](O)(C(=O)CO)C[C@@H]3O[C@H]1C[C@H](NC(=O)[C@H](CC(C)C)NC(=O)[C@H](CC(N)=O)NC(=O)[C@H](C)NC(=O)[C@H](C)NC(=O)[C@H](CC(C)C)NC(=O)CCCCCN2C(=O)C=CC2=O)[C@H](O)[C@H](C)O1 [QHL-124] ({Hexanoyl(6-maleimido)}-LAANL-{Doxorubicin(3'-N)})	solubility	> 5 mg/mL
COc1cccc2c1C(=O)c1c(O)c3c(c(O)c1C2=O)C[C@@](O)(C(=O)CO)C[C@@H]3O[C@H]1C[C@H](NC(=O)[C@H](CC(C)C)NC(=O)[C@H](CC(N)=O)NC(=O)[C@H](C)NC(=O)[C@H](C)NC(=O)[C@H](CCCCN)NC(=O)CCCCCN2C(=O)C=CC2=O)[C@H](O)[C@H](C)O1 [QHL-135] ({Hexanoyl(6-maleimido)}-KAANL-{Doxorubicin(3'-N)})	solubility	> 5 mg/mL
COc1cccc2c1C(=O)c1c(O)c3c(c(O)c1C2=O)C[C@@](O)(C(=O)CO)C[C@@H]3O[C@H]1C[C@H](NC(=O)[C@H](CC(C)C)NC(=O)[C@H](CC(N)=O)NC(=O)[C@H](C)NC(=O)[C@H](C)NC(=O)CCOCCOCCNC(=O)CCCN2C(=O)C=CC2=O)[C@H](O)[C@H](C)O1 [QHL-099] ({Butanoyl(4-maleimido)-PEG2}-AANL-{Doxorubicin(3'-N)})	solubility	> 20 mg/mL

Now examine the next entry.
Enquiry: Reported solubility, compound COc1cccc2c1C(=O)c1c(O)c3c(c(O)c1C2=O)C[C@@](O)(C(=O)CO)C[C@@H]3O[C@H]1C[C@H](NC(=O)[C@H](CC(C)C)NC(=O)[C@H](CC(N)=O)NC(=O)[C@H](C)NC(=O)[C@H](C)NC(=O)[C@H](CC(=O)O)NC(=O)CCOCCOCCNC(=O)CCN2C(=O)C=CC2=O)[C@H](O)[C@H](C)O1 [QHL-042] ({Propanoyl(3-maleimido)-PEG2}-DAANL-{Doxorubicin(3'-N)}) : ____
Return: > 20 mg/mL
